System: Escherichia coli TOP10
test: shrunken log2 fold change of peptide-encoding DNA abundance (4.5 h post-induction vs induction); higher = less antimicrobial activity (less host growth inhibition)
conditions-used: time post-induction: 4.5 h; library: site-saturation at positions 5, 18, 19, 20
Outcome label depends on shrunken log2 fold change relative to 0.01: at/above gives true, below gives false.

As a guide, the following entries are already answered.
biosequence: RRIRGRPPRLPRPRPRPFKSPRP
tested-target: Escherichia coli TOP10
label-class: true

biosequence: RRIRMRPPRLPRPRPRPCIVPRP
tested-target: Escherichia coli TOP10
label-class: false

biosequence: RRIRDRPPRLPRPRPRPFIKPRP
tested-target: Escherichia coli TOP10
label-class: false

biosequence: RRIRCRPPRLPRPRPRPKWSPRP
tested-target: Escherichia coli TOP10
label-class: true

Can RRIRDRPPRLPRPRPRPKQTPRP be said to have shrunken log2 fold change at or above 0.01?
true

Given RRIRNRPPRLPRPRPRPRQHPRP , state whether its shrunken log2 fold change is at least 0.01.
false

Hi, just wondering whether RRIRGRPPRLPRPRPRPMYLPRP shows shrunken log2 fold change of 0.01 or higher.
true

Check if shrunken log2 fold change >= 0.01 (inclusive). Item: RRIRPRPPRLPRPRPRPNFTPRP
true

Test whether the sequence RRIRMRPPRLPRPRPRPVLHPRP records shrunken log2 fold change of 0.01 or higher.
false

Given the entry RRIRVRPPRLPRPRPRPPNAPRP , answer whether its shrunken log2 fold change meets or surpasses 0.01.
true

Is reported shrunken log2 fold change greater than or equal to 0.01 here: RRIRRRPPRLPRPRPRPVGCPRP
true

----------
Test system: Escherichia coli TOP10
test: shrunken log2 fold change of peptide-encoding DNA abundance (4.5 h post-induction vs induction); higher = less antimicrobial activity (less host growth inhibition)
conditions-used: time post-induction: 4.5 h; library: site-saturation at positions 5, 18, 19, 20
quantity-name: shrunken log2 fold change
# respond with the number and nothing more

Sample answers from the record:
biosequence: RRIRQRPPRLPRPRPRPVHYPRP
shrunken log2 fold change: -0.0228
//
biosequence: RRIRNRPPRLPRPRPRPPIGPRP
shrunken log2 fold change: 0.106
//
biosequence: RRIRRRPPRLPRPRPRPKQKPRP
shrunken log2 fold change: 0.264

Per the record, RRIRARPPRLPRPRPRPIIRPRP has shrunken log2 fold change of -0.357

response.value for RRIRGRPPRLPRPRPRPDCMPRP (field: shrunken log2 fold change) = 0.909

Looking up RRIRTRPPRLPRPRPRPKRTPRP , I found its shrunken log2 fold change recorded as -0.132

Value of measured shrunken log2 fold change for the entry RRIRLRPPRLPRPRPRPPIFPRP : -0.0913

shrunken log2 fold change reported for this sequence RRIRVRPPRLPRPRPRPRVAPRP : 0.381

----------
Test system: Escherichia coli TOP10
test: shrunken log2 fold change of peptide-encoding DNA abundance (4.5 h post-induction vs induction); higher = less antimicrobial activity (less host growth inhibition)
conditions-used: time post-induction: 4.5 h; library: site-saturation at positions 5, 18, 19, 20
quantity-name: shrunken log2 fold change
Respond using a number only.

biosequence: RRIRMRPPRLPRPRPRPSDRPRP
tested-target: Escherichia coli TOP10
reported-value: 0.0714

biosequence: RRIRWRPPRLPRPRPRPGCSPRP
tested-target: Escherichia coli TOP10
reported-value: 0.551

biosequence: RRIRVRPPRLPRPRPRPMMDPRP
tested-target: Escherichia coli TOP10
reported-value: -0.154

biosequence: RRIRYRPPRLPRPRPRPTMPPRP
tested-target: Escherichia coli TOP10
reported-value: -0.725

biosequence: RRIRFRPPRLPRPRPRPDGSPRP
tested-target: Escherichia coli TOP10
reported-value: -0.0167

Please fill in: shrunken log2 fold change reported for RRIRERPPRLPRPRPRPAPAPRP = 0.305

The reported shrunken log2 fold change of the sequence RRIRSRPPRLPRPRPRPAMVPRP was -0.274

The sequence identified as RRIRPRPPRLPRPRPRPNMIPRP registered its shrunken log2 fold change at -0.531

Measured shrunken log2 fold change of RRIRMRPPRLPRPRPRPHGIPRP : 0.0295

In plain terms, RRIRHRPPRLPRPRPRPRETPRP has a documented shrunken log2 fold change of 0.0714

----------
Tested on: Escherichia coli TOP10
test: shrunken log2 fold change of peptide-encoding DNA abundance (4.5 h post-induction vs induction); higher = less antimicrobial activity (less host growth inhibition)
conditions-used: time post-induction: 4.5 h; library: site-saturation at positions 5, 18, 19, 20
Classification field: Fulfilled = shrunken log2 fold change at or over 0.009; Not fulfilled = shrunken log2 fold change under 0.009.

Check out these entries, answers already filled in.
biosequence: RRIRKRPPRLPRPRPRPVNFPRP
label-class: Not fulfilled
//
biosequence: RRIRSRPPRLPRPRPRPQYDPRP
label-class: Not fulfilled
//
biosequence: RRIRSRPPRLPRPRPRPPEVPRP
label-class: Fulfilled
//
biosequence: RRIRVRPPRLPRPRPRPFKYPRP
label-class: Not fulfilled
//
biosequence: RRIRCRPPRLPRPRPRPYHDPRP
label-class: Not fulfilled

Could you verify whether the entry RRIRWRPPRLPRPRPRPGWEPRP shows shrunken log2 fold change of no less than 0.009?
Fulfilled

Please tell me: is the sequence RRIRARPPRLPRPRPRPESKPRP at or over 0.009 in terms of shrunken log2 fold change?
Fulfilled

Decide: is the reported value of shrunken log2 fold change for RRIRARPPRLPRPRPRPDHGPRP equal to or greater than 0.009?
Not fulfilled

Decide: shrunken log2 fold change of RRIRTRPPRLPRPRPRPGNNPRP >= 0.009?
Not fulfilled

Determine whether this sequence has shrunken log2 fold change no lower than 0.009: RRIRDRPPRLPRPRPRPLKKPRP
Fulfilled

Exam item: decide whether the reported shrunken log2 fold change for RRIRHRPPRLPRPRPRPRDKPRP is at least 0.009.
Not fulfilled

----------
System: Escherichia coli TOP10
test: shrunken log2 fold change of peptide-encoding DNA abundance (4.5 h post-induction vs induction); higher = less antimicrobial activity (less host growth inhibition)
conditions-used: time post-induction: 4.5 h; library: site-saturation at positions 5, 18, 19, 20
Parameter threshold = 0.06. Response is met when shrunken log2 fold change meets or exceeds it, else not met.

Recorded results for 8 sequences are shown here.
biosequence: RRIRFRPPRLPRPRPRPEVNPRP
label-class: not met
//
biosequence: RRIRHRPPRLPRPRPRPKRPPRP
label-class: met
//
biosequence: RRIRQRPPRLPRPRPRPGMDPRP
label-class: met
//
biosequence: RRIRERPPRLPRPRPRPVYIPRP
label-class: not met
//
biosequence: RRIRVRPPRLPRPRPRPDKQPRP
label-class: not met
//
biosequence: RRIRLRPPRLPRPRPRPSNQPRP
label-class: not met
//
biosequence: RRIRFRPPRLPRPRPRPTRWPRP
label-class: met
//
biosequence: RRIRMRPPRLPRPRPRPAVAPRP
label-class: met

# check: shrunken log2 fold change of RRIRYRPPRLPRPRPRPTYIPRP is greater than or equal to 0.06
not met

Is it the case that RRIRMRPPRLPRPRPRPMCTPRP has shrunken log2 fold change reaching or exceeding 0.06?
not met

In plain terms: is recorded shrunken log2 fold change at least 0.06 for RRIRYRPPRLPRPRPRPPKKPRP ?
not met

Reported shrunken log2 fold change at or above 0.06? RRIRWRPPRLPRPRPRPEHWPRP
met

Please tell me: is the sequence RRIRSRPPRLPRPRPRPCYVPRP at or over 0.06 in terms of shrunken log2 fold change?
not met

Does shrunken log2 fold change meet or surpass 0.06 for RRIRPRPPRLPRPRPRPNEQPRP ?
met

Is reported shrunken log2 fold change greater than or equal to 0.06 here: RRIRRRPPRLPRPRPRPMACPRP
not met

----------
System: Escherichia coli TOP10;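 also: peptides expressed intracellularly from a pBAD plasmid library in pooled LB shake-flask culture, induced with 0.3% L-arabinose, DNA abundance read by NGS, three biological replicates, DESeq2 with apeglm shrinkage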
test: shrunken log2 fold change of peptide-encoding DNA abundance (4.5 h post-induction vs induction); higher = less antimicrobial activity (less host growth inhibition)
conditions-used: time post-induction: 4.5 h; library: site-saturation at positions 5, 18, 19, 20
Please mark Criterion met if the recorded shrunken log2 fold change is equal to or greater than -0.3, and Criterion not met if it falls below.

biosequence: RRIRVRPPRLPRPRPRPRDWPRP
label-class: Criterion met

biosequence: RRIRVRPPRLPRPRPRPPYLPRP
label-class: Criterion met

biosequence: RRIRNRPPRLPRPRPRPNDQPRP
label-class: Criterion not met

biosequence: RRIRWRPPRLPRPRPRPAMFPRP
label-class: Criterion met

biosequence: RRIRQRPPRLPRPRPRPKKSPRP
label-class: Criterion met

Entry RRIRFRPPRLPRPRPRPSFKPRP : is its shrunken log2 fold change no less than -0.3?
Criterion not met

Is reported shrunken log2 fold change greater than or equal to -0.3 here: RRIRLRPPRLPRPRPRPHPEPRP
Criterion met

Does the sequence RRIRHRPPRLPRPRPRPQKTPRP have recorded shrunken log2 fold change that is -0.3 or more?
Criterion met

Please check the record RRIRVRPPRLPRPRPRPWELPRP and state if its shrunken log2 fold change is at or above -0.3.
Criterion not met

Record RRIRHRPPRLPRPRPRPLNSPRP ; criterion: shrunken log2 fold change no lower than -0.3. Met?
Criterion not met

Dear colleague, could you confirm whether RRIRFRPPRLPRPRPRPFQCPRP has shrunken log2 fold change at or above -0.3?
Criterion met

Please indicate if the recorded shrunken log2 fold change for RRIRPRPPRLPRPRPRPFDTPRP meets or exceeds -0.3.
Criterion met

Entry RRIRRRPPRLPRPRPRPFAFPRP : is its shrunken log2 fold change no less than -0.3?
Criterion met

Check the entry RRIRPRPPRLPRPRPRPFMGPRP : does shrunken log2 fold change equal or exceed -0.3?
Criterion not met

Determine whether this sequence has shrunken log2 fold change no lower than -0.3: RRIRLRPPRLPRPRPRPMESPRP
Criterion met
